# Study target: TR-α (Homo sapiens)
# Experiment: In vitro TR-α activity (in-house protocol)
# Format: cell-based
# Stated conditions: Conc. 1000 nM; read-out: TR-α Fold Induction w.r.t T3(100 nm)
Metric: fold induction at 1 µM

Value (fold induction at 1 µM, TR-α (Homo sapiens)) for record CC(ON=Cc1cc(Cl)c(Oc2ccc(O)c(C(C)C)c2)c(Cl)c1)C(=O)O (centres unmarked) = 76.6

Value (fold induction at 1 µM, TR-α (Homo sapiens)) for record O=C(O)CON=Cc1cc(Br)c(Oc2ccc(O)c(Cc3ccccc3)c2)c(Br)c1 = 64.8

Value (fold induction at 1 µM, TR-α (Homo sapiens)) for record CC(C)c1cc(Oc2c(Br)cc(C=NOCC(=O)O)cc2Br)ccc1O = 133

Value (fold induction at 1 µM, TR-α (Homo sapiens)) for record CC(ON=Cc1cc(Br)c(Oc2ccc(O)c(Cc3ccccc3)c2)c(Br)c1)C(=O)O (centres unmarked) = 161

Value (fold induction at 1 µM, TR-α (Homo sapiens)) for record CCC(ON=Cc1cc(Br)c(Oc2ccc(O)c(Cc3ccccc3)c2)c(Br)c1)C(=O)O (centres unmarked) = 109

Value (fold induction at 1 µM, TR-α (Homo sapiens)) for record CCC(C)c1cc(Oc2c(Br)cc(C=NOC(C(=O)O)c3ccccc3)cc2Br)ccc1O (centres unmarked) = 90.4

Value (fold induction at 1 µM, TR-α (Homo sapiens)) for record CCC(C)c1cc(Oc2c(Cl)cc(C=NOCC(=O)O)cc2Cl)ccc1O (centres unmarked) = 108

Value (fold induction at 1 µM, TR-α (Homo sapiens)) for record CC(C)(ON=Cc1cc(Br)c(Oc2ccc(O)c(Cc3ccccc3)c2)c(Br)c1)C(=O)O = 85.1

Value (fold induction at 1 µM, TR-α (Homo sapiens)) for record CCC(ON=Cc1cc(Br)c(Oc2ccc(O)c(-c3ccccc3)c2)c(Br)c1)C(=O)O (centres unmarked) = 105

Value (fold induction at 1 µM, TR-α (Homo sapiens)) for record CCN(CC)S(=O)(=O)c1cc(Oc2c(Br)cc(C=NOC(C)C(=O)O)cc2Br)ccc1O (centres unmarked) = 76.2

Value (fold induction at 1 µM, TR-α (Homo sapiens)) for record CCC(C)c1cc(Oc2c(Cl)cc(C=NOC(C)C(=O)O)cc2Cl)ccc1O (centres unmarked) = 138

Value (fold induction at 1 µM, TR-α (Homo sapiens)) for record O=C(O)CON=Cc1cc(Cl)c(Oc2ccc(O)c(-c3ccccc3)c2)c(Cl)c1 = 35.5

Value (fold induction at 1 µM, TR-α (Homo sapiens)) for record CC(ON=Cc1cc(Br)c(Oc2ccc(O)c(C(O)c3ccc(Cl)cc3)c2)c(Br)c1)C(=O)O (centres unmarked) = 76.4

Value (fold induction at 1 µM, TR-α (Homo sapiens)) for record CC(ON=Cc1cc(Br)c(Oc2ccc(O)c(S(=O)(=O)N[C@@H]3C[C@H]4CC[C@@H]3C4)c2)c(Br)c1)C(=O)O (some centres unmarked) = 16.7

Value (fold induction at 1 µM, TR-α (Homo sapiens)) for record CC(C)NS(=O)(=O)c1cc(Oc2c(Br)cc(C=NOC(C)C(=O)O)cc2Br)ccc1O (centres unmarked) = 45.6

Value (fold induction at 1 µM, TR-α (Homo sapiens)) for record CC(C)c1cc(Oc2c(Br)cc(C=NOC(C)(C)C(=O)O)cc2Br)ccc1O = 110

Value (fold induction at 1 µM, TR-α (Homo sapiens)) for record CC(ON=Cc1cc(Br)c(Oc2ccc(O)c(S(=O)(=O)N3CCCCC3)c2)c(Br)c1)C(=O)O (centres unmarked) = 128

###

# Study target: TR-α (Homo sapiens)
# Sequence (P10827 1-410 isoform P10827-2): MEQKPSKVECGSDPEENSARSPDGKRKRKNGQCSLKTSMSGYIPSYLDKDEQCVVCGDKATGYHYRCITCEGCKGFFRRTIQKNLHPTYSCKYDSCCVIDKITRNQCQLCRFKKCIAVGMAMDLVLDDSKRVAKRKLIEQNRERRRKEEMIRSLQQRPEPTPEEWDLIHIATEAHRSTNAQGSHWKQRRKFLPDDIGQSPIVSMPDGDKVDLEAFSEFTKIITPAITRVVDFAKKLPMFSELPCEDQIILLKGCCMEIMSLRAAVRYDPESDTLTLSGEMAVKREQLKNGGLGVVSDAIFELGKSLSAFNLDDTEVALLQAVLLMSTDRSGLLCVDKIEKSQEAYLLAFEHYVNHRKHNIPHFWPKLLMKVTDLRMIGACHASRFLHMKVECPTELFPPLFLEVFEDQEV
# Experiment: In vitro TR-α activity (in-house protocol)
# Type: cell-based
# Stated conditions: Conc. 10 nM; read-out: TR-α Fold Induction w.r.t T3(100 nm)
Metric: fold induction at 0.01 µM

fold induction at 0.01 µM recorded for this compound, CC(ON=Cc1cc(Br)c(Oc2ccc(O)c(S(=O)(=O)NC3CCCCC3)c2)c(Br)c1)C(=O)O (stereo not shown) [Example 39] , is 11.8

fold induction at 0.01 µM recorded for this compound, CC(C)(ON=Cc1cc(Br)c(Oc2ccc(O)c(Cc3ccccc3)c2)c(Br)c1)C(=O)O [Example 22] , is 27.2

fold induction at 0.01 µM recorded for this compound, CC(ON=Cc1cc(Br)c(Oc2ccc(O)c(C(=O)c3ccc(Cl)cc3)c2)c(Br)c1)C(=O)O (stereo not shown) [Example 26] , is 13.9

fold induction at 0.01 µM recorded for this compound, O=C(O)CON=Cc1cc(Br)c(Oc2ccc(O)c(C(=O)c3ccc(Cl)cc3)c2)c(Br)c1 [Example 28] , is 25

###

# Study target: TR-β (Homo sapiens, UniProt P10828)
# Sequence (P10828 1-461): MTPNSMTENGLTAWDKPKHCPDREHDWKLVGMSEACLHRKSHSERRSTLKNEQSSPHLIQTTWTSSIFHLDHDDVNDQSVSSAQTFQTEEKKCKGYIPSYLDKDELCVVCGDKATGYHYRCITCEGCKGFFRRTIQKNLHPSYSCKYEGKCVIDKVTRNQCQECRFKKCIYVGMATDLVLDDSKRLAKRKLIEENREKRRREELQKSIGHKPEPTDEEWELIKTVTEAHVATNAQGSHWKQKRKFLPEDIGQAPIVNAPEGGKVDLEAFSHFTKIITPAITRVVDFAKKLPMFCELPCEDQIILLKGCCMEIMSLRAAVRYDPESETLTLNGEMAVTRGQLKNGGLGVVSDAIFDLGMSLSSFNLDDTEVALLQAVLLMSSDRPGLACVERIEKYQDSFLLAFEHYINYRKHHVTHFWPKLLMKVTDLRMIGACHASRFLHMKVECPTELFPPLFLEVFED
# Experiment: In vitro TR-β activity (in-house protocol)
# Format: cell-based
# Stated conditions: Conc. 100 nM; read-out: TR-β Fold Induction w.r.t T3(100 nm)
Metric: fold induction at 0.1 µM
Keep the answer to the number alone.

fold induction at 0.1 µM recorded for this molecule, CC(ON=Cc1cc(Br)c(Oc2ccc(O)c(Cc3ccccc3)c2)c(Br)c1)C(=O)O (centres unmarked) [Example 16] , is 54.3

fold induction at 0.1 µM recorded for this molecule, CCN(CC)S(=O)(=O)c1cc(Oc2c(Br)cc(C=NOC(C)C(=O)O)cc2Br)ccc1O (centres unmarked) [Example 38] , is 25

fold induction at 0.1 µM recorded for this molecule, CCC(C)c1cc(Oc2c(Cl)cc(C=NOC(C)C(=O)O)cc2Cl)ccc1O (centres unmarked) [Example 23] , is 78.9

fold induction at 0.1 µM recorded for this molecule, O=C(O)CON=Cc1cc(Br)c(Oc2ccc(O)c(S(=O)(=O)N3CCCC3)c2)c(Br)c1 [Example 41] , is 14

fold induction at 0.1 µM recorded for this molecule, CCC(ON=Cc1cc(Br)c(Oc2ccc(O)c(Cc3ccccc3)c2)c(Br)c1)C(=O)O (centres unmarked) [Example 17] , is 81.5

fold induction at 0.1 µM recorded for this molecule, O=C(O)CON=Cc1cc(Cl)c(Oc2ccc(O)c(Cc3ccccc3)c2)c(Cl)c1 [Example 5] , is 43.6

fold induction at 0.1 µM recorded for this molecule, CC(ON=Cc1cc(Br)c(Oc2ccc(O)c(C(O)c3cccc(Cl)c3)c2)c(Br)c1)C(=O)O (centres unmarked) [Example 34] , is 21.4

fold induction at 0.1 µM recorded for this molecule, CC(ON=Cc1cc(Br)c(Oc2ccc(O)c(S(=O)(=O)N3CCCCC3)c2)c(Br)c1)C(=O)O (centres unmarked) [Example 36] , is 58.2

fold induction at 0.1 µM recorded for this molecule, O=C(O)CON=Cc1cc(Br)c(Oc2ccc(O)c(C(=O)c3ccc(Br)cc3)c2)c(Br)c1 [Example 31] , is 41.5

fold induction at 0.1 µM recorded for this molecule, CC(C)c1cc(Oc2c(Br)cc(C=NOC(C)(C)C(=O)O)cc2Br)ccc1O [Example 12] , is 119

fold induction at 0.1 µM recorded for this molecule, CC(ON=Cc1cc(Br)c(Oc2ccc(O)c(C(C)(C)C)c2)c(Br)c1)C(=O)O (centres unmarked) [Example 24] , is 105

fold induction at 0.1 µM recorded for this molecule, CCC(C)c1cc(Oc2c(Br)cc(C=NOCC(=O)O)cc2Br)ccc1O (centres unmarked) [Example 6] , is 84

fold induction at 0.1 µM recorded for this molecule, CC(C)c1cc(Oc2c(Cl)cc(C=NOCC(=O)O)cc2Cl)ccc1O [Example 1] , is 52.6

fold induction at 0.1 µM recorded for this molecule, CC(C)(ON=Cc1cc(Br)c(Oc2ccc(O)c(-c3ccccc3)c2)c(Br)c1)C(=O)O [Example 20] , is 46

fold induction at 0.1 µM recorded for this molecule, CC(C)c1cc(Oc2c(Br)cc(C=NOCC(=O)O)cc2Br)ccc1O [Example 3] , is 92.1

fold induction at 0.1 µM recorded for this molecule, CCC(C)c1cc(Oc2c(Cl)cc(C=NOCC(=O)O)cc2Cl)ccc1O (centres unmarked) [Example 2] , is 79.4

fold induction at 0.1 µM recorded for this molecule, CCC(C)c1cc(Oc2c(Br)cc(C=NOC(C(=O)O)c3ccccc3)cc2Br)ccc1O (centres unmarked) [Example 18] , is 69.5

fold induction at 0.1 µM recorded for this molecule, CC(ON=Cc1cc(Br)c(Oc2ccc(O)c(S(=O)(=O)N[C@@H]3C[C@H]4CC[C@@H]3C4)c2)c(Br)c1)C(=O)O (some centres unmarked) [Example 40] , is 10.9

fold induction at 0.1 µM recorded for this molecule, CCC(ON=Cc1cc(Br)c(Oc2ccc(O)c(-c3ccccc3)c2)c(Br)c1)C(=O)O (centres unmarked) [Example 21] , is 51.6

fold induction at 0.1 µM recorded for this molecule, CC(ON=Cc1cc(Br)c(Oc2ccc(O)c(S(=O)(=O)N3CCCC3)c2)c(Br)c1)C(=O)O (centres unmarked) [Example 42] , is 15

fold induction at 0.1 µM recorded for this molecule, CC(ON=Cc1cc(Br)c(Oc2ccc(O)c(-c3ccccc3)c2)c(Br)c1)C(=O)O (centres unmarked) [Example 11] , is 73.8

fold induction at 0.1 µM recorded for this molecule, CC(C)NS(=O)(=O)c1cc(Oc2c(Br)cc(C=NOC(C)C(=O)O)cc2Br)ccc1O (centres unmarked) [Example 37] , is 17.7

fold induction at 0.1 µM recorded for this molecule, CC(ON=Cc1cc(Cl)c(Oc2ccc(O)c(C(C)C)c2)c(Cl)c1)C(=O)O (centres unmarked) [Example 8] , is 85.2

fold induction at 0.1 µM recorded for this molecule, O=C(O)CON=Cc1cc(Br)c(Oc2ccc(O)c(C(O)c3ccc(Cl)cc3)c2)c(Br)c1 (centres unmarked) [Example 29] , is 33.5

fold induction at 0.1 µM recorded for this molecule, CC(ON=Cc1cc(Br)c(Oc2ccc(O)c(C(O)c3ccc(Cl)cc3)c2)c(Br)c1)C(=O)O (centres unmarked) [Example 27] , is 29.1

fold induction at 0.1 µM recorded for this molecule, O=C(O)CON=Cc1cc(Cl)c(Oc2ccc(O)c(-c3ccccc3)c2)c(Cl)c1 [Example 4] , is 19.3

fold induction at 0.1 µM recorded for this molecule, CCc1cc(Oc2c(Br)cc(C=NOC(C)C(=O)O)cc2Br)ccc1O (centres unmarked) [Example 25] , is 59.9

fold induction at 0.1 µM recorded for this molecule, CC(ON=Cc1cc(Br)c(Oc2ccc(O)c(S(=O)(=O)NC3CCCCC3)c2)c(Br)c1)C(=O)O (centres unmarked) [Example 39] , is 15.8

fold induction at 0.1 µM recorded for this molecule, O=C(O)CON=Cc1cc(Br)c(Oc2ccc(O)c(C(=O)c3ccc(Cl)cc3)c2)c(Br)c1 [Example 28] , is 61.7
